Assay System: Cav3.1 (T-type channel alpha-1G) (Homo sapiens)
Procedure Details: T-type calcium channel voltage-clamp assay, Cav3.1
Applied Conditions: read-out: Cav 3.1 IC50
pIC50: −log10 of the molar value.
Property Label: pIC50

> print(dat)
                                   molecule                              assay.system  value
1  CC(C)c1cc(C(=O)N2CCN(c3cc(C(C)(C)C)cc(C(C)(C)C)c3)CC2)cs1 [Compound 23]  Cav3.1 (T-type channel alpha-1G) (Homo sapiens)   6.10
2  CC(C)(C)C(=O)Nc1ncccc1C(=O)N1CCN(c2cc(C(C)(C)C)cc(C(C)(C)C)c2)CC1 [Compound 8]  Cav3.1 (T-type channel alpha-1G) (Homo sapiens)   6.26
3  Cc1ccc(C(=O)N2CCN(c3cc(C(C)(C)C)cc(C(C)(C)C)c3)CC2)s1 [Compound 28]  Cav3.1 (T-type channel alpha-1G) (Homo sapiens)   6.10
4  CC(C)(C)c1cc(N2CCN(C(=O)c3ccccc3)CC2)cc(C(C)(C)C)c1 [Compound 48]  Cav3.1 (T-type channel alpha-1G) (Homo sapiens)   6.43
5  Cc1nc(C(F)(F)F)c(C(=O)N2CCN(c3cc(C(C)(C)C)cc(C(C)(C)C)c3)CC2)s1 [Compound 41]  Cav3.1 (T-type channel alpha-1G) (Homo sapiens)   5.82
6  Cc1cc(C(=O)N2CCN(c3cc(C(C)(C)C)cc(C(C)(C)C)c3)CC2)n(C(C)(C)C)n1 [Compound 10]  Cav3.1 (T-type channel alpha-1G) (Homo sapiens)   5.97

###

Assay System: UniProt:O43497
Procedure Details: T-type calcium channel voltage-clamp assay, Cav3.1
Applied Conditions: read-out: Cav 3.1 IC50
pIC50: −log10 of the molar value.
Decision: pIC50 >= 6 yields TRUE, all other cases yield FALSE.

> print(dat)
                                   molecule    assay.system  class
1  CCn1nc(C)cc1C(=O)N1CCN(c2cc(C(C)(C)C)cc(C(C)(C)C)c2)CC1 [Compound 33]  UniProt:O43497  FALSE
2  CC(C)(C)c1cc(N2CCN(C(=O)COc3ccc(F)cc3)CC2)cc(C(C)(C)C)c1 [Compound 13]  UniProt:O43497   TRUE
3  Cc1nc(C(=O)N2CCN(c3cc(C(C)(C)C)cc(C(C)(C)C)c3)CC2)c(C(F)(F)F)o1 [Compound 37]  UniProt:O43497  FALSE
4  CC(C)(C)c1cc(N2CCN(C(=O)c3ccc(OCC(F)(F)F)nc3)CC2)cc(C(C)(C)C)c1 [Compound 47]  UniProt:O43497   TRUE
5  CC(C)(C)C(=O)Nc1cc(C(=O)N2CCN(c3cc(C(C)(C)C)cc(C(C)(C)C)c3)CC2)ccn1 [Compound 22]  UniProt:O43497   TRUE

###

IC50 listing for selected compounds.
Assay System: Cav3.2 (T-type channel alpha-1H) (Homo sapiens, UniProt O95180)
Construct: expressed in transfected cells; host or cells: HEK 293
Procedure Details: T-type calcium channel voltage-clamp assay, Cav3.2
Assay type: cell-based
Applied Conditions: read-out: Cav 3.2 IC50
Property Label: IC50

> print(dat)
                                item.smiles    value
1  Cc1nc(C(F)(F)F)c(C(=O)N2CCN(c3cc(C(C)(C)C)cc(C(C)(C)C)c3)CC2)s1  1.41 µM
2  Cc1nc(C(F)(F)F)ccc1C(=O)N1CCN(c2cc(C(C)(C)C)cc(C(C)(C)C)c2)CC1  1.15 µM
3  CC(C)(C)C(=O)Nc1cc(C(=O)N2CCN(c3cc(C(C)(C)C)cc(C(C)(C)C)c3)CC2)ccn1  0.07 µM
4  CCSc1ncccc1C(=O)N1CCN(c2cc(C(C)(C)C)cc(C(C)(C)C)c2)CC1   1.8 µM
5  Cc1ccsc1C(=O)N1CCN(c2cc(C(C)(C)C)cc(C(C)(C)C)c2)CC1  1.01 µM
6  CC(C)c1cc(C(=O)N2CCN(c3cc(C(C)(C)C)cc(C(C)(C)C)c3)CC2)cs1  0.87 µM

###

Assay System: Human Cav2.2 channels (Homo sapiens, UniProt Q00975)
Construct: expressed in transfected cells
Sequence (Q00975 whole entry): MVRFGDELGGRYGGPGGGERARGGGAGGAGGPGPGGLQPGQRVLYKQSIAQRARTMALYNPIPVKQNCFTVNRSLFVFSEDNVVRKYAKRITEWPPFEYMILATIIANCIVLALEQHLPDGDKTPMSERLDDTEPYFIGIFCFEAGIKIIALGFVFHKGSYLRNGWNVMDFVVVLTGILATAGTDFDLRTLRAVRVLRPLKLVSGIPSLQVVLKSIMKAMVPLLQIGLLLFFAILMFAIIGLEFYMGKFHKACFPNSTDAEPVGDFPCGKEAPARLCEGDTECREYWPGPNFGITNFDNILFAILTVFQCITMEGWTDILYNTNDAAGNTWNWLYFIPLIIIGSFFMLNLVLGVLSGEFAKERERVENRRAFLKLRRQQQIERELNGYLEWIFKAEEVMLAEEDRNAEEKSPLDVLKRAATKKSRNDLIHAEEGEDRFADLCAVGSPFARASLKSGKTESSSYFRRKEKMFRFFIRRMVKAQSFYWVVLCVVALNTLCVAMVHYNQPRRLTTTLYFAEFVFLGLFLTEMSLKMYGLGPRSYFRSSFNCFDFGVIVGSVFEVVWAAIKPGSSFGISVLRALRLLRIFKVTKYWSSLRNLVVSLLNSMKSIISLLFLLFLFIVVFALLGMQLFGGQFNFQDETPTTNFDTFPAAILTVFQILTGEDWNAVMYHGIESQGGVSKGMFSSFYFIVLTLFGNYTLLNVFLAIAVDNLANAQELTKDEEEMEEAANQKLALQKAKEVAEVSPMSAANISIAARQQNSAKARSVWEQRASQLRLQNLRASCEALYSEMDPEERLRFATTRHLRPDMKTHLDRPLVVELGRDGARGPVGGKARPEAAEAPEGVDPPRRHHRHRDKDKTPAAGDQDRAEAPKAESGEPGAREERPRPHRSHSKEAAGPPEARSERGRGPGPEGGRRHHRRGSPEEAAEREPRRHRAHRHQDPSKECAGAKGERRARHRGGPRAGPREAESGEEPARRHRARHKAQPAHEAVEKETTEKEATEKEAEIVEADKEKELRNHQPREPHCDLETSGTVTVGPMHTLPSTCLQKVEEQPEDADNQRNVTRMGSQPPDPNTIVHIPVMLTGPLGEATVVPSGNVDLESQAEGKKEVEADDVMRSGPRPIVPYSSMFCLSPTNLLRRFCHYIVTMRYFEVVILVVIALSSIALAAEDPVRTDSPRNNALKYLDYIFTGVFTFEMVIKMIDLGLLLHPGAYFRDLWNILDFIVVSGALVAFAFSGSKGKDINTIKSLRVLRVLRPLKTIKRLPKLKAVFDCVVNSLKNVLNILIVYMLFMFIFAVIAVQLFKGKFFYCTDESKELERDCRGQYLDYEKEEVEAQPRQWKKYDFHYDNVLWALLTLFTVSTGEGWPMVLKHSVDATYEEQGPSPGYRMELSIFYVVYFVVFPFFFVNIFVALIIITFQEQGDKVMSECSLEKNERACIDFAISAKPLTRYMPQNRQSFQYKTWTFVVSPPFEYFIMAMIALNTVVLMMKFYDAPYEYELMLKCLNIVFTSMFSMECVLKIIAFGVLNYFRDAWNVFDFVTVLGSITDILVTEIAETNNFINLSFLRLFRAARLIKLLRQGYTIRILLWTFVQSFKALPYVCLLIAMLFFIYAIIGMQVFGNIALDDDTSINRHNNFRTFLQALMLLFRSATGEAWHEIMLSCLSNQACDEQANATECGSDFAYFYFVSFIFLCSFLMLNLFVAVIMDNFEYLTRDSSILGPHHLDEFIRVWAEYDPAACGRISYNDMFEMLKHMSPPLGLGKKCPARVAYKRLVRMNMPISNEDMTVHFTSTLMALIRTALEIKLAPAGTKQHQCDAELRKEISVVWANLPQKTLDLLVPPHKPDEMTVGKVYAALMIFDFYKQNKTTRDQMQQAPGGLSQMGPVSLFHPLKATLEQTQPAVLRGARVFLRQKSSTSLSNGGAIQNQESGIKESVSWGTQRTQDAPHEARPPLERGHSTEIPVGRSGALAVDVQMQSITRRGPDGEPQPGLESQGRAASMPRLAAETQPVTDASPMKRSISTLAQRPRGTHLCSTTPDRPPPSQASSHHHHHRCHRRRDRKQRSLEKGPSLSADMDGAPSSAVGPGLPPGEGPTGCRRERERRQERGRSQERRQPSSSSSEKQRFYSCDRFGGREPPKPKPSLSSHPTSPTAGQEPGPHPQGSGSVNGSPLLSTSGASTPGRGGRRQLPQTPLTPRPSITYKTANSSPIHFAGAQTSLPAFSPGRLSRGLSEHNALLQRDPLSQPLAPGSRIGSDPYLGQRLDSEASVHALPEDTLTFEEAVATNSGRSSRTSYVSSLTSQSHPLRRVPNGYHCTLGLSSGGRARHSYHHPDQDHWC
Sequence (P54289 25-956 partner limits assumed): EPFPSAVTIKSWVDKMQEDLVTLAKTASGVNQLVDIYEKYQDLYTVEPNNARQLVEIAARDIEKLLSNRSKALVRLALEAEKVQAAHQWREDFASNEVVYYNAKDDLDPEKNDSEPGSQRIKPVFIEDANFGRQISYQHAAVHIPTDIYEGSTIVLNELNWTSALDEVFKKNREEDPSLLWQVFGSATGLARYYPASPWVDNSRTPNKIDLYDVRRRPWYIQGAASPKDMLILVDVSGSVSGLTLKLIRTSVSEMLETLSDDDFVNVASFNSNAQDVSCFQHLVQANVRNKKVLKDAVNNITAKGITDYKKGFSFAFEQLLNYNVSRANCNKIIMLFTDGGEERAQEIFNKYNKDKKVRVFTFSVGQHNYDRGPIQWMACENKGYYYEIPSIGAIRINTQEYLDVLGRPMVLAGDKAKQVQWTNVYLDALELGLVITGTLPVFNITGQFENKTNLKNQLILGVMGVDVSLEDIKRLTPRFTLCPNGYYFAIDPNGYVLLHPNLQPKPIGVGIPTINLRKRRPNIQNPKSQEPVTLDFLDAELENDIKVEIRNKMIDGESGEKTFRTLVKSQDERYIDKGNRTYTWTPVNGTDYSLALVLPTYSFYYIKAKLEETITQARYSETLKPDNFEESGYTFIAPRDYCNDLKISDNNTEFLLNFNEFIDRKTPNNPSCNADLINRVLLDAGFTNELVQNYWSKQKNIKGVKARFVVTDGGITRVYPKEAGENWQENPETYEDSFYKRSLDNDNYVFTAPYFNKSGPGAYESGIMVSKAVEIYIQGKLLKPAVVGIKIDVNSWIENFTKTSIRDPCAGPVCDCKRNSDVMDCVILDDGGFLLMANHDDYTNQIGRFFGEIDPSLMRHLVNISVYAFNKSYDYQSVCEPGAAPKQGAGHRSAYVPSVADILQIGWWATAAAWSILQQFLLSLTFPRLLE
Sequence (P54289 957-1103 partner limits assumed): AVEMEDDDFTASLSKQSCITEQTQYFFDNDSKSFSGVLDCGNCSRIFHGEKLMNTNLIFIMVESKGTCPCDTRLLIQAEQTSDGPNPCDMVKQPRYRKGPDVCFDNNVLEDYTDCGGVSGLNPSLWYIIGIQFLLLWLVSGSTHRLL
Sequence (P54284 whole entry partner): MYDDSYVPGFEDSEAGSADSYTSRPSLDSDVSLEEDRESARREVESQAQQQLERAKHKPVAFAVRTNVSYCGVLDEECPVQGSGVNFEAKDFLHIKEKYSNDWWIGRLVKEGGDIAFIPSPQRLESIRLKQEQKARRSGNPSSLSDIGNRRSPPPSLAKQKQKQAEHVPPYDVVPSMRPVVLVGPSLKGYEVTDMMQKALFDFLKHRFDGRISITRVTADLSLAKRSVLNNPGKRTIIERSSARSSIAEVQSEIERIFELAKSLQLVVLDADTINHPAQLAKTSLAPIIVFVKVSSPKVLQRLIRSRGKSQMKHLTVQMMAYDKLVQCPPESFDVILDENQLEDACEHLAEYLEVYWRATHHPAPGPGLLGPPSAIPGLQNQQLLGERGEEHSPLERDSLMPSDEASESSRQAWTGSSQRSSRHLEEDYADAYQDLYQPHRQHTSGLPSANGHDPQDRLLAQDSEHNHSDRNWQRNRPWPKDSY
Procedure Details: Block of Cav2.2 (N-type) channels expressed in HEK293 cells
Assay type: cell-based
Applied Conditions: HEK293; read-out: Cav 2.2 % Inh @ 10 μM
Decision: inhibition at 10 µM >= 90% yields Met, all other cases yield Not met.

> print(dat)
                                   molecule    class
1  Cc1nc(C(F)(F)F)c(C(=O)N2CCN(c3cc(C(C)(C)C)cc(C(C)(C)C)c3)CC2)s1 [Compound 41]      Met
2  Cc1ccc(OCC(=O)N2CCN(c3cc(C(C)(C)C)cc(C(C)(C)C)c3)CC2)c(C)c1 [Compound 14]  Not met
3  CC(C)(C)c1cc(N2CCN(C(=O)c3cc(-c4ccccc4)nc(-c4ccccc4)c3)CC2)cc(C(C)(C)C)c1 [Compound 50]  Not met

###

Assay System: Cav3.2 (T-type channel alpha-1H) (Homo sapiens, UniProt O95180)
Procedure Details: T-type calcium channel voltage-clamp assay, Cav3.2
Applied Conditions: read-out: Cav 3.2 IC50
Property Label: IC50 (µM)

> print(dat)
                                item.smiles                              assay.system  property.label  value
1  CCOc1ncccc1C(=O)N1CCN(c2cc(C(C)(C)C)cc(C(C)(C)C)c2)CC1  Cav3.2 (T-type channel alpha-1H) (Homo sapiens, UniProt O95180)            IC50   2.23
2  CC(C)(C)c1cc(N2CCN(C(=O)c3ccccc3)CC2)cc(C(C)(C)C)c1  Cav3.2 (T-type channel alpha-1H) (Homo sapiens, UniProt O95180)            IC50   0.61
3  Cc1nc(C)c(C(=O)N2CCN(c3cc(C(C)(C)C)cc(C(C)(C)C)c3)CC2)s1  Cav3.2 (T-type channel alpha-1H) (Homo sapiens, UniProt O95180)            IC50   1.15
4  CC(C)(C)c1cc(N2CCN(C(=O)c3ccc(OCC(F)(F)F)nc3)CC2)cc(C(C)(C)C)c1  Cav3.2 (T-type channel alpha-1H) (Homo sapiens, UniProt O95180)            IC50    0.8
5  Cc1ccc(OCC(=O)N2CCN(c3cc(C(C)(C)C)cc(C(C)(C)C)c3)CC2)c(C)c1  Cav3.2 (T-type channel alpha-1H) (Homo sapiens, UniProt O95180)            IC50   1.11

###

Assay System: Cav3.1 (T-type channel alpha-1G) (Homo sapiens, UniProt O43497)
Procedure Details: T-type calcium channel voltage-clamp assay, Cav3.1
Applied Conditions: read-out: Cav 3.1 IC50
Property Label: IC50 (nM)

> print(dat)
                                item.smiles  value
1  Cc1nc(C(F)(F)F)ccc1C(=O)N1CCN(c2cc(C(C)(C)C)cc(C(C)(C)C)c2)CC1    970
2  CCOc1ncccc1C(=O)N1CCN(c2cc(C(C)(C)C)cc(C(C)(C)C)c2)CC1   1490
3  Cc1cccc(C(=O)N2CCN(c3cc(C(C)(C)C)cc(C(C)(C)C)c3)CC2)n1   1520
4  Cc1ccsc1C(=O)N1CCN(c2cc(C(C)(C)C)cc(C(C)(C)C)c2)CC1    840
5  Cc1nc(C)c(C(=O)N2CCN(c3cc(C(C)(C)C)cc(C(C)(C)C)c3)CC2)s1   1090

###

inhibition at 10 µM listing for selected compounds.
Assay System: Human Cav2.2 channels (Homo sapiens)
Construct: expressed in transfected cells
Procedure Details: Block of Cav2.2 (N-type) channels expressed in HEK293 cells
Format: cell-based
Applied Conditions: HEK293; read-out: Cav 2.2 % Inh @ 10 μM
Property Label: inhibition at 10 µM (%)

> print(dat)
                                   compound  unit.annotation  value
1  CC(C)c1cc(C(=O)N2CCN(c3cc(C(C)(C)C)cc(C(C)(C)C)c3)CC2)on1 [Compound 24]                %     88
2  Cc1ccsc1C(=O)N1CCN(c2cc(C(C)(C)C)cc(C(C)(C)C)c2)CC1 [Compound 29]                %     88
3  COc1ccc(Cl)cc1C(=O)N1CCN(c2cc(C(C)(C)C)cc(C(C)(C)C)c2)CC1 [Compound 9]                %     91
